System: CAKI-1
experimental protocol: NCI 60 antitumor screening (single dose)
Assay type: cell-based
conditions used: Homo sapiens; CAKI-1 (renal cancer), single dose 10 μM; read-out: Growth inhibition percentage (GI %)
endpoint label: inhibition at 10 µM (%)
// note: answer is a bare numeric in %

Input line: Endpoint output: inhibition at 10 µM of O=[N+]([O-])c1cccc(/C=N/Nc2nc(N/N=C/c3cccc([N+](=O)[O-])c3)nc(N3CCCCC3)n2)c1 . Value?
Output line: 27.6

Input line: Endpoint output: inhibition at 10 µM of COC(=O)C(Cc1ccccc1)Nc1nc(NC(Cc2ccccc2)C(=O)OC)nc(N2CCOCC2)n1 (stereo not shown) . Value?
Output line: 13.2

Input line: Endpoint output: inhibition at 10 µM of O=[N+]([O-])c1cc(/C=N/Nc2nc(N/N=C/c3ccc(Cl)c([N+](=O)[O-])c3)nc(N3CCCCC3)n2)ccc1Cl . Value?
Output line: 27.6

Input line: Endpoint output: inhibition at 10 µM of Clc1cccc(/C=N/Nc2nc(N/N=C/c3cccc(Cl)c3Cl)nc(N3CCOCC3)n2)c1Cl . Value?
Output line: -1.35

Input line: Endpoint output: inhibition at 10 µM of Brc1ccccc1/C=N/Nc1nc(N/N=C/c2ccccc2Br)nc(N2CCOCC2)n1 . Value?
Output line: -8.66

Input line: Endpoint output: inhibition at 10 µM of Fc1cccc(Cl)c1/C=N/Nc1nc(N/N=C/c2c(F)cccc2Cl)nc(N2CCOCC2)n1 . Value?
Output line: 17.5

Input line: Endpoint output: inhibition at 10 µM of CN(C)c1ccc(/C=N/Nc2nc(N/N=C/c3ccc(N(C)C)cc3)nc(N3CCOCC3)n2)cc1 . Value?
Output line: 4.03

----------
System: SK-MEL-5
experimental protocol: NCI 60 antitumor screening (single dose / five doses)
Assay type: cell-based
conditions used: Homo sapiens; SK-MEL-5 (melanoma), single dose 10 μM; read-out: Growth inhibition percentage (GI %)
Tick condition met if inhibition at 10 µM is 10% or greater. Tick condition not met if inhibition at 10 µM is less than 10%.

Input line: Hi team, for Fc1cccc(/C=N/Nc2nc(N/N=C/c3cccc(F)c3)nc(N3CCOCC3)n2)c1 , is the recorded inhibition at 10 µM at or above 10%?
Output line: condition met

Input line: Hi team, for O=C(NNc1nc(NNC(=O)c2ccccc2)nc(N2CCOCC2)n1)c1ccccc1 , is the recorded inhibition at 10 µM at or above 10%?
Output line: condition not met

Input line: Hi team, for Clc1cccc(/C=N/Nc2nc(N/N=C/c3cccc(Cl)c3)nc(N3CCOCC3)n2)c1 , is the recorded inhibition at 10 µM at or above 10%?
Output line: condition met

Input line: Hi team, for Brc1cccc(/C=N/Nc2nc(N/N=C/c3cccc(Br)c3)nc(N3CCCCC3)n2)c1 , is the recorded inhibition at 10 µM at or above 10%?
Output line: condition met

Input line: Hi team, for O=C1Nc2ccc(Cl)cc2/C1=N\Nc1nc(N/N=C2/C(=O)Nc3ccc(Cl)cc32)nc(N2CCOCC2)n1 , is the recorded inhibition at 10 µM at or above 10%?
Output line: condition met

Input line: Hi team, for Oc1ccc(/C=N/Nc2nc(N/N=C/c3ccc(O)c(O)c3)nc(N3CCCCC3)n2)cc1O , is the recorded inhibition at 10 µM at or above 10%?
Output line: condition not met

Input line: Hi team, for Oc1ccccc1/C=N/Nc1nc(N/N=C/c2ccccc2O)nc(N2CCOCC2)n1 , is the recorded inhibition at 10 µM at or above 10%?
Output line: condition met

Input line: Hi team, for Oc1ccc(/C=N/Nc2nc(N/N=C/c3ccc(O)c(O)c3)nc(N3CCOCC3)n2)cc1O , is the recorded inhibition at 10 µM at or above 10%?
Output line: condition not met

Input line: Hi team, for Clc1cccc(/C=N/Nc2nc(N/N=C/c3cccc(Cl)c3)nc(N3CCCCC3)n2)c1 , is the recorded inhibition at 10 µM at or above 10%?
Output line: condition met

Input line: Hi team, for C(=N\Nc1nc(N/N=C/c2ccc3c(c2)OCO3)nc(N2CCCCC2)n1)/c1ccc2c(c1)OCO2 , is the recorded inhibition at 10 µM at or above 10%?
Output line: condition not met

Input line: Hi team, for Brc1cccc(/C=N/Nc2nc(N/N=C/c3cccc(Br)c3)nc(N3CCOCC3)n2)c1 , is the recorded inhibition at 10 µM at or above 10%?
Output line: condition met

Input line: Hi team, for CN(C)c1ccc(/C=N/Nc2nc(N/N=C/c3ccc(N(C)C)cc3)nc(N3CCOCC3)n2)cc1 , is the recorded inhibition at 10 µM at or above 10%?
Output line: condition not met

Input line: Hi team, for CN(C)c1ccc(/C=N/Nc2nc(N/N=C/c3ccc(N(C)C)cc3)nc(N3CCCCC3)n2)cc1 , is the recorded inhibition at 10 µM at or above 10%?
Output line: condition met

Input line: Hi team, for Fc1cccc(/C=N/Nc2nc(N/N=C/c3cccc(F)c3)nc(N3CCCCC3)n2)c1 , is the recorded inhibition at 10 µM at or above 10%?
Output line: condition met

Input line: Hi team, for C(=N\Nc1nc(N/N=C/c2ccc3c(c2)OCO3)nc(N2CCOCC2)n1)/c1ccc2c(c1)OCO2 , is the recorded inhibition at 10 µM at or above 10%?
Output line: condition met

Input line: Hi team, for Fc1cccc(Cl)c1/C=N/Nc1nc(N/N=C/c2c(F)cccc2Cl)nc(N2CCOCC2)n1 , is the recorded inhibition at 10 µM at or above 10%?
Output line: condition met

----------
Record form. Attribute: inhibition at 10 µM. Fill in for each entry.
Test system: DU-145
experimental protocol: NCI 60 antitumor screening (single dose / five doses)
Type: cell-based
conditions used: Homo sapiens; DU-145 (prostate cancer), single dose 10 μM; read-out: Growth inhibition percentage (GI %)
// note: answer is a bare numeric in %

Input line: Endpoint output: inhibition at 10 µM of Oc1ccc(/C=N/Nc2nc(N/N=C/c3ccc(O)c(O)c3)nc(N3CCCCC3)n2)cc1O [compound 7j] . Value?
Output line: 0.25

Input line: Endpoint output: inhibition at 10 µM of CN(C)c1ccc(/C=N/Nc2nc(N/N=C/c3ccc(N(C)C)cc3)nc(N3CCCCC3)n2)cc1 [compound 7g] . Value?
Output line: 22.5

Input line: Endpoint output: inhibition at 10 µM of Oc1ccc(/C=N/Nc2nc(N/N=C/c3ccc(O)c(O)c3)nc(N3CCOCC3)n2)cc1O [compound 6j] . Value?
Output line: -5.37

Input line: Endpoint output: inhibition at 10 µM of Brc1cccc(/C=N/Nc2nc(N/N=C/c3cccc(Br)c3)nc(N3CCCCC3)n2)c1 [compound 7c] . Value?
Output line: -1.2

Input line: Endpoint output: inhibition at 10 µM of O=C(NNc1nc(NNC(=O)c2ccccc2)nc(N2CCOCC2)n1)c1ccccc1 [compound 8d] . Value?
Output line: -7.98

Input line: Endpoint output: inhibition at 10 µM of Fc1cccc(/C=N/Nc2nc(N/N=C/c3cccc(F)c3)nc(N3CCOCC3)n2)c1 [compound 6e] . Value?
Output line: 40.5

Input line: Endpoint output: inhibition at 10 µM of Clc1cccc(/C=N/Nc2nc(N/N=C/c3cccc(Cl)c3Cl)nc(N3CCCCC3)n2)c1Cl [compound 7h] . Value?
Output line: 26.6

Input line: Endpoint output: inhibition at 10 µM of Oc1ccccc1/C=N/Nc1nc(N/N=C/c2ccccc2O)nc(N2CCOCC2)n1 [compound 6a] . Value?
Output line: 64.5

Input line: Endpoint output: inhibition at 10 µM of O=C1Nc2ccc(Cl)cc2/C1=N\Nc1nc(N/N=C2/C(=O)Nc3ccc(Cl)cc32)nc(N2CCOCC2)n1 [compound 8b] . Value?
Output line: 11.6

Input line: Endpoint output: inhibition at 10 µM of Fc1cccc(/C=N/Nc2nc(N/N=C/c3cccc(F)c3)nc(N3CCCCC3)n2)c1 [compound 7e] . Value?
Output line: 2.92

Input line: Endpoint output: inhibition at 10 µM of C(=N\Nc1nc(N/N=C/c2ccc3c(c2)OCO3)nc(N2CCCCC2)n1)/c1ccc2c(c1)OCO2 [compound 7k] . Value?
Output line: 0.19

Input line: Endpoint output: inhibition at 10 µM of C(=N\Nc1nc(N/N=C/c2ccc3c(c2)OCO3)nc(N2CCOCC2)n1)/c1ccc2c(c1)OCO2 [compound 6k] . Value?
Output line: 23.9

Input line: Endpoint output: inhibition at 10 µM of Brc1cccc(/C=N/Nc2nc(N/N=C/c3cccc(Br)c3)nc(N3CCOCC3)n2)c1 [compound 6c] . Value?
Output line: 72.7

Input line: Endpoint output: inhibition at 10 µM of Clc1cccc(/C=N/Nc2nc(N/N=C/c3cccc(Cl)c3)nc(N3CCCCC3)n2)c1 [compound 7d] . Value?
Output line: 5.38

Input line: Endpoint output: inhibition at 10 µM of Clc1cccc(/C=N/Nc2nc(N/N=C/c3cccc(Cl)c3)nc(N3CCOCC3)n2)c1 [compound 6d] . Value?
Output line: 57.5

Input line: Endpoint output: inhibition at 10 µM of CN(C)c1ccc(/C=N/Nc2nc(N/N=C/c3ccc(N(C)C)cc3)nc(N3CCOCC3)n2)cc1 [compound 6g] . Value?
Output line: 7.27

Input line: Endpoint output: inhibition at 10 µM of Fc1cccc(Cl)c1/C=N/Nc1nc(N/N=C/c2c(F)cccc2Cl)nc(N2CCOCC2)n1 [compound 6l] . Value?
Output line: 4.76

Input line: Endpoint output: inhibition at 10 µM of Fc1cccc(Cl)c1/C=N/Nc1nc(N/N=C/c2c(F)cccc2Cl)nc(N2CCCCC2)n1 [compound 7l] . Value?
Output line: 39

Input line: Endpoint output: inhibition at 10 µM of Brc1ccccc1/C=N/Nc1nc(N/N=C/c2ccccc2Br)nc(N2CCOCC2)n1 [compound 6b] . Value?
Output line: 1.72

Input line: Endpoint output: inhibition at 10 µM of Brc1ccccc1/C=N/Nc1nc(N/N=C/c2ccccc2Br)nc(N2CCCCC2)n1 [compound 7b] . Value?
Output line: -4.47

Input line: Endpoint output: inhibition at 10 µM of Clc1cccc(/C=N/Nc2nc(N/N=C/c3cccc(Cl)c3Cl)nc(N3CCOCC3)n2)c1Cl [compound 6h] . Value?
Output line: -2.63

Input line: Endpoint output: inhibition at 10 µM of Oc1ccccc1/C=N/Nc1nc(N/N=C/c2ccccc2O)nc(N2CCCCC2)n1 [compound 7a] . Value?
Output line: 45.2

Input line: Endpoint output: inhibition at 10 µM of COC(=O)C(Cc1ccccc1)Nc1nc(NC(Cc2ccccc2)C(=O)OC)nc(N2CCOCC2)n1 (centres unmarked) [compound 8c] . Value?
Output line: -11.6
